Test system: MOLM-13 cells
Test: Viability assay (96 hours), Alamar Blue, single agent
Format: cell-based
Details: Homo sapiens, MOLM-13, 96 h, read-out: EC50 (viability)
pEC50: −log10 of the molar value.
measured_quantity: pEC50

                                   molecule           val
0  O=C(CCCCCCNC(=O)c1cnc(N(c2ccccc2)c2ccccc2)nc1)NO [Rocilinostat, Ricolinostat, reference compound]  5.52 to 6.30
